# assaySystem: Aβ1–42 (Homo sapiens, UniProt P05067)
# Construct: aliquots of 2.0 µL of Aβ1–42 (AS-64129–05 Anaspec Inc.); purchased Anaspec Inc. AS-64129–05
# Sequence (P05067 672-713): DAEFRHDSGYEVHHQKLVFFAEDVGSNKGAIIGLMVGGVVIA
# procedureText: Inhibition of self-induced Aβ1–42 aggregation (Thioflavin T assay)
# Assay type: biochemical
# details: compound 25 μM, 24 h, read-out: Inhibitory rate on self-induced Aβ1-42 aggregation
# Method: Inhibitory effects of the compounds on self-induced Aβ1–42 aggregation were evaluated using a Thioflavin T (ThT)-(T3516, Sigma-Aldrich, St. Louis, MO) binding assay according to the previously reported method. […] The Aβ1–42 and the test sample solutions were incubated for 24 h at the room temperature. The inhibitory rate of Aβ1–42 self-induced aggregation was calculated according to the following equation: (1-IFi/IFc) × 100%. […]
Assign inhibition at 25 µM to each entry below.
Answer format: numeric, % implied, no suffix.

Data request: # inhibition at 25 µM lookup, item COc1ccc(/C=C/C(=O)NCCCCCCNc2c3c(nc4ccccc24)CCCC3)cc1
Data returned: 34.6

Data request: # inhibition at 25 µM lookup, item O=C(/C=C/c1ccc([N+](=O)[O-])cc1)NCCCCCCNc1c2c(nc3ccccc13)CCCC2
Data returned: 31.8

Data request: # inhibition at 25 µM lookup, item O=C(/C=C/c1ccc(Cl)cc1)NCCCCCCNc1c2c(nc3ccccc13)CCCC2
Data returned: 42.2

Data request: # inhibition at 25 µM lookup, item Oc1ccc(/C=C/c2cc(O)cc(O)c2)cc1 [Resveratrol, reference compound]
Data returned: 30.4

* * *

Assign IC50 to each entry below.
# assaySystem: AChE (EC 3.1.1.7) from human (Homo sapiens)
# Construct: purchased Sigma-Aldrich C1682
# Sequence (P22303 32-614): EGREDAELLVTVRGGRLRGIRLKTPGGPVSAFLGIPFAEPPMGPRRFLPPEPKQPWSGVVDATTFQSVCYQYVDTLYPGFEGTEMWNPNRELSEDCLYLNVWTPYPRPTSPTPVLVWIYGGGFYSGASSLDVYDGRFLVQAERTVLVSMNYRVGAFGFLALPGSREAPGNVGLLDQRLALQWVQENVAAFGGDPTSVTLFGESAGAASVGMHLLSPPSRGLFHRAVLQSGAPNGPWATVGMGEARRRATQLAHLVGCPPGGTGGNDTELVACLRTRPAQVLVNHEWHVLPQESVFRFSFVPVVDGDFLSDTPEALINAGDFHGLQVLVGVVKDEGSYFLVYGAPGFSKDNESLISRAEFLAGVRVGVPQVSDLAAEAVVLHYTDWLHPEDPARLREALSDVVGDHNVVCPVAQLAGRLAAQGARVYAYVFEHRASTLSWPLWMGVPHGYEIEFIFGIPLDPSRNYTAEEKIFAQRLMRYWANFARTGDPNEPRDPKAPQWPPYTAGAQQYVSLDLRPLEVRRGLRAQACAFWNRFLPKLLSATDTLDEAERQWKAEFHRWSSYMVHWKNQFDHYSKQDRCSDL
# procedureText: Human AChE inhibition, Ellman's method
# Assay type: biochemical
# details: huAChE; mean ± SEM

Data request: # IC50 lookup, item O=C(/C=C/c1ccc(Cl)cc1)NCCCCCCNc1c2c(nc3ccccc13)CCCC2 [Compound 27]
Data returned: 16.5 nM

Data request: # IC50 lookup, item COc1ccc(/C=C/C(=O)NCCCCCCNc2c3c(nc4ccccc24)CCCC3)cc1 [Compound 30]
Data returned: 15.3 nM

Data request: # IC50 lookup, item O=C(/C=C/c1ccc([N+](=O)[O-])cc1)NCCCCCCNc1c2c(nc3ccccc13)CCCC2 [Compound 19]
Data returned: 10.2 nM

* * *

Assign Latency to target (second), Day 5 to each entry below.
# Tested on: ICR mice
# procedureText: Morris water maze test, scopolamine-induced cognitive impairment
# details: learning and training; Day 5; oral, plus scopolamine; ICR mice
Answer format: numeric, s implied, no suffix.

Data request: # Latency to target (second), Day 5 lookup, item O=C(/C=C/c1ccc(Cl)cc1)NCCCCCCNc1c2c(nc3ccccc13)CCCC2
Data returned: 57.1

Data request: # Latency to target (second), Day 5 lookup, item O=C(/C=C/c1ccc([N+](=O)[O-])cc1)NCCCCCCNc1c2c(nc3ccccc13)CCCC2
Data returned: 54.1

Data request: # Latency to target (second), Day 5 lookup, item COc1ccc(/C=C/C(=O)NCCCCCCNc2c3c(nc4ccccc24)CCCC3)cc1
Data returned: 59.1

Data request: # Latency to target (second), Day 5 lookup, item Nc1c2c(nc3ccccc13)CCCC2 [Tacrine, reference compound]
Data returned: 69.2

Provenance of the data: paper PMC7011792
